- target_under_test: KCNJ5^G151R (Homo sapiens, UniProt P48544, G151R)
- Construct: expressed in transfected cells
- Sequence (P48544 1-419 G151R): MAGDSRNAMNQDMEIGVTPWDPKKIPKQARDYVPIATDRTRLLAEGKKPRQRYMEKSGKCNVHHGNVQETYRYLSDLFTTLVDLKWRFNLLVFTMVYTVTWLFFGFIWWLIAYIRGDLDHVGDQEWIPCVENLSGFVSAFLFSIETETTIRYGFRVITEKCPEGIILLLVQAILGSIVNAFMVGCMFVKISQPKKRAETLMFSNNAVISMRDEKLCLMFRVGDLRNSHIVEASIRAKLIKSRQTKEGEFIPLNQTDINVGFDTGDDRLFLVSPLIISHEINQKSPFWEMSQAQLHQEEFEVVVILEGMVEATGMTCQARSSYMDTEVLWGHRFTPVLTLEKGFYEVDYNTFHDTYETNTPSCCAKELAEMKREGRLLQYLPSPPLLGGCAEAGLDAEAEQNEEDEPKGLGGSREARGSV
- assay_protocol: cell-based
- Type: cell-based
- experimental_context: 10-point dilution 20 to 0.0391 μM, N=3, four-parameter fit
Provide the reported G151R maximum inhibition of each item.
Give bare numbers, in %.

Sample records with G151R maximum inhibition:
- cpd_smiles: "CC[C@H]1OC(=O)[C@H](C)[C@@H](O[C@H]2C[C@@](C)(OC)[C@@H](O)[C@H](C)O2)[C@H](C)[C@@H](O[C@@H]2O[C@H](C)C[C@H](N(C)C)[C@H]2O)[C@](C)(O)C[C@@H](C)/C(=N\\OCOCCOC)[C@H](C)[C@@H](O)[C@]1(C)O"
  reported_endpoint: "G151R maximum inhibition"
  numeric_readout: 105.92
- cpd_smiles: "CC[C@H]1OC(=O)[C@H](C)[C@@H](O[C@H]2C[C@@](C)(O)[C@@H](O)[C@H](C)O2)[C@H](C)[C@@H](O[C@@H]2O[C@H](C)C[C@H](N(C)C)[C@H]2O)[C@](C)(O)C[C@@H](C)C(=O)[C@H](C)[C@@H](O)[C@]1(C)O"
  reported_endpoint: "G151R maximum inhibition"
  numeric_readout: 75.00

Next:
Looking up CC[C@@H](O)[C@@](C)(O)[C@@H]1OC(=O)[C@H](C)[C@@H](O[C@H]2C[C@@](C)(OC)[C@@H](O)[C@H](C)O2)[C@H](C)[C@@H](O[C@@H]2O[C@H](C)C[C@H](N(C)C)[C@H]2O)[C@@]2(C)CC(C)=C(O2)[C@@H]1C , I see its G151R maximum inhibition listed as 11.13
